Values were extracted from paper PMC9986306.

# assayed_system: human NaV1.1 channel (SCN1A, HEK293T cells) (Homo sapiens, UniProt P35498)
# Construct: expressed in transfected cells
# method_notes: Planar patch-clamp, inhibition of peak sodium current (IC50 protocol)
# Assay type: cell-based
# assay_conditions: NaV1.1; 0.1–100 μM, no maximal inhibition at 100 µM
endpoint_label: Effect on peak sodium current (in words)

compound | result
CCCCCc1cc(O)c(C/C=C(\C)CCC=C(C)C)c(O)c1 | modestly inhibited
CCCCCc1cc(O)c2c(c1)OC(C)(CCC=C(C)C)C=C2 (stereo not shown) | modestly inhibited
CCCCCc1cc2c(c(O)c1C(=O)O)C=CC(C)(CCC=C(C)C)O2 (stereo not shown) | modestly inhibited

----------
# assayed_system: human NaV1.1 channel (SCN1A, HEK293T cells) (Homo sapiens, UniProt P35498)
# method_notes: Planar patch-clamp, inhibition of peak sodium current (IC50 protocol)
# assay_conditions: NaV1.1 peak current; 0.1–100 µM, 5 min exposure; mean ± SEM
endpoint_label: IC50
Please append the unit to your numeric answer.

## Input Given the molecule `CCCCCc1cc(O)c(C/C=C(\C)CCC=C(C)C)c(O)c1C(=O)O` , what is its reported IC50?
## Output 13.6 µM

----------
# assayed_system: human NaV1.7 channel (SCN9A, CHO cells) (Homo sapiens)
# Construct: expressed in transfected cells
# method_notes: Planar patch-clamp, inhibition of peak sodium current (IC50 protocol)
# Type: cell-based
# assay_conditions: NaV1.7; 0.1–100 μM, no maximal inhibition at 100 µM

compound | Effect on peak sodium current (in words)
CCCCCc1cc2c(c(O)c1C(=O)O)C=CC(C)(CCC=C(C)C)O2 (stereo not shown) | modestly inhibited
CCCCCc1cc(O)c2c(c1)OC(C)(CCC=C(C)C)C=C2 (stereo not shown) | modestly inhibited
CCCCCc1cc(O)c(C/C=C(\C)CCC=C(C)C)c(O)c1 | modestly inhibited

----------
# assayed_system: human NaV1.2 channel (SCN2A, HEK293T cells) (Homo sapiens, UniProt Q99250)
# Sequence (Q99250 whole entry): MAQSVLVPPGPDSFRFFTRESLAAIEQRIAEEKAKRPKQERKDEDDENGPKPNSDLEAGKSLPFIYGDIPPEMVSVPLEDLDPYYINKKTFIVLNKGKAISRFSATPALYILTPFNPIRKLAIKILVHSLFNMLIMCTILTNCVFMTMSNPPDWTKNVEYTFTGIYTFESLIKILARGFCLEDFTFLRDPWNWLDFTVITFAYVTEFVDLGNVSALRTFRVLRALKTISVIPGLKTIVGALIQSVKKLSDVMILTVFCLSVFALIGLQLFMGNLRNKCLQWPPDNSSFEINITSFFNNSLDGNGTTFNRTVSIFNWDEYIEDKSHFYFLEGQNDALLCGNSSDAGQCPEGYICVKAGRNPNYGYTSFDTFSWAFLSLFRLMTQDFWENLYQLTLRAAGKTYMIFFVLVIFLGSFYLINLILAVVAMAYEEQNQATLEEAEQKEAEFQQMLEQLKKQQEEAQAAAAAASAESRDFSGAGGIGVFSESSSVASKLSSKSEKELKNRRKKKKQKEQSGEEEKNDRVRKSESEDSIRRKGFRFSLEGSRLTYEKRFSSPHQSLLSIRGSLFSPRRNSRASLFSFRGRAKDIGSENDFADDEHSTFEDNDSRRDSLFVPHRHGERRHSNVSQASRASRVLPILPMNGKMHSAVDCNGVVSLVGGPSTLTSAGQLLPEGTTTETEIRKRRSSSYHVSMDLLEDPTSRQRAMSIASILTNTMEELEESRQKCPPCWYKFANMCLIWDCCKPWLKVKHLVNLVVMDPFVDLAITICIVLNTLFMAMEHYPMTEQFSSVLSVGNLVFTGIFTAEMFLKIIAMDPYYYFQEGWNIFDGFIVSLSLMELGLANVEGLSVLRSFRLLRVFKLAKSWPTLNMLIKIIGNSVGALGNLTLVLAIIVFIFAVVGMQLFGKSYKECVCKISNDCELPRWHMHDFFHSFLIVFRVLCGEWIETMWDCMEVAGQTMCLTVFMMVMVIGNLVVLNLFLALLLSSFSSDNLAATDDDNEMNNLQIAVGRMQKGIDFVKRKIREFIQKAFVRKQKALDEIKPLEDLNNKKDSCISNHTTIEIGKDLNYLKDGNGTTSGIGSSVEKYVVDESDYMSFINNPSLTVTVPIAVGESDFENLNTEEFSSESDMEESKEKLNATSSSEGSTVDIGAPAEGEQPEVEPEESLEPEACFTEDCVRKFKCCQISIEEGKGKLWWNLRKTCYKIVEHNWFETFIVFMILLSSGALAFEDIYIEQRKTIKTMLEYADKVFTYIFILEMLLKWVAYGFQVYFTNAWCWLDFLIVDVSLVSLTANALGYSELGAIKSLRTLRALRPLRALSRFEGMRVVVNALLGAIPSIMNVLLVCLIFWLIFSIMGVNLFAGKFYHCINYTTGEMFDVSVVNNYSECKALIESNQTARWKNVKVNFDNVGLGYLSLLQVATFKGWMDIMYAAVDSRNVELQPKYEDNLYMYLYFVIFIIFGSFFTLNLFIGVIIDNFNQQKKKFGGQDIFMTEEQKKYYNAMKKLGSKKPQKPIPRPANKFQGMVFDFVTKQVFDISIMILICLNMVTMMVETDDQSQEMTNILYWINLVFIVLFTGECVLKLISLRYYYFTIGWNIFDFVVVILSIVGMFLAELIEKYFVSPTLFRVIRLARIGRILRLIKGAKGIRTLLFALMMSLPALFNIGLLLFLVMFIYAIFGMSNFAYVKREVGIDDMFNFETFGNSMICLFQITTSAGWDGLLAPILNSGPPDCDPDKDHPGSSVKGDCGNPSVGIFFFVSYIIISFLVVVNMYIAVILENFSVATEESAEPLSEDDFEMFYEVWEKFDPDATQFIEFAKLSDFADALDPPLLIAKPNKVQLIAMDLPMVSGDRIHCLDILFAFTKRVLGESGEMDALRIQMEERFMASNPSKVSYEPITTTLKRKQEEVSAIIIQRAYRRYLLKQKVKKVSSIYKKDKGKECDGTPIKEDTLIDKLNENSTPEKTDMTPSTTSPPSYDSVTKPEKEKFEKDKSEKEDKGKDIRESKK
# method_notes: Planar patch-clamp, inhibition of peak sodium current (IC50 protocol)
# assay_conditions: NaV1.2 peak current; 0.1–100 µM, 5 min exposure; mean ± SEM
endpoint_label: pIC50
Keep it numeric: pIC50 is minus log10 of the concentration in mol/L.

## Input May I ask what pIC50 has been recorded for `CCCCCc1cc(O)c(C/C=C(\C)CCC=C(C)C)c(O)c1C(=O)O` ?
## Output 4.83

----------
# assayed_system: human NaV1.2 channel (SCN2A, HEK293T cells) (Homo sapiens, UniProt Q99250)
# Construct: expressed in transfected cells
# method_notes: Planar patch-clamp, inhibition of peak sodium current (IC50 protocol)
# Format: cell-based
# assay_conditions: NaV1.2; 0.1–100 μM, no maximal inhibition at 100 µM

molecule | assayed_system | Effect on peak sodium current (in words)
CCCCCc1cc2c(c(O)c1C(=O)O)C=CC(C)(CCC=C(C)C)O2 (stereo not shown) [CBCA, cannabichromenic acid] | human NaV1.2 channel (SCN2A, HEK293T cells) (Homo sapiens, UniProt Q99250) | modestly inhibited
CCCCCc1cc(O)c2c(c1)OC(C)(CCC=C(C)C)C=C2 (stereo not shown) [CBC, cannabichromene] | human NaV1.2 channel (SCN2A, HEK293T cells) (Homo sapiens, UniProt Q99250) | modestly inhibited
CCCCCc1cc(O)c(C/C=C(\C)CCC=C(C)C)c(O)c1 [CBG, cannabigerol] | human NaV1.2 channel (SCN2A, HEK293T cells) (Homo sapiens, UniProt Q99250) | modestly inhibited

----------
# assayed_system: human NaV1.7 channel (SCN9A, CHO cells) (Homo sapiens, UniProt Q15858)
# Sequence (Q15858 whole entry): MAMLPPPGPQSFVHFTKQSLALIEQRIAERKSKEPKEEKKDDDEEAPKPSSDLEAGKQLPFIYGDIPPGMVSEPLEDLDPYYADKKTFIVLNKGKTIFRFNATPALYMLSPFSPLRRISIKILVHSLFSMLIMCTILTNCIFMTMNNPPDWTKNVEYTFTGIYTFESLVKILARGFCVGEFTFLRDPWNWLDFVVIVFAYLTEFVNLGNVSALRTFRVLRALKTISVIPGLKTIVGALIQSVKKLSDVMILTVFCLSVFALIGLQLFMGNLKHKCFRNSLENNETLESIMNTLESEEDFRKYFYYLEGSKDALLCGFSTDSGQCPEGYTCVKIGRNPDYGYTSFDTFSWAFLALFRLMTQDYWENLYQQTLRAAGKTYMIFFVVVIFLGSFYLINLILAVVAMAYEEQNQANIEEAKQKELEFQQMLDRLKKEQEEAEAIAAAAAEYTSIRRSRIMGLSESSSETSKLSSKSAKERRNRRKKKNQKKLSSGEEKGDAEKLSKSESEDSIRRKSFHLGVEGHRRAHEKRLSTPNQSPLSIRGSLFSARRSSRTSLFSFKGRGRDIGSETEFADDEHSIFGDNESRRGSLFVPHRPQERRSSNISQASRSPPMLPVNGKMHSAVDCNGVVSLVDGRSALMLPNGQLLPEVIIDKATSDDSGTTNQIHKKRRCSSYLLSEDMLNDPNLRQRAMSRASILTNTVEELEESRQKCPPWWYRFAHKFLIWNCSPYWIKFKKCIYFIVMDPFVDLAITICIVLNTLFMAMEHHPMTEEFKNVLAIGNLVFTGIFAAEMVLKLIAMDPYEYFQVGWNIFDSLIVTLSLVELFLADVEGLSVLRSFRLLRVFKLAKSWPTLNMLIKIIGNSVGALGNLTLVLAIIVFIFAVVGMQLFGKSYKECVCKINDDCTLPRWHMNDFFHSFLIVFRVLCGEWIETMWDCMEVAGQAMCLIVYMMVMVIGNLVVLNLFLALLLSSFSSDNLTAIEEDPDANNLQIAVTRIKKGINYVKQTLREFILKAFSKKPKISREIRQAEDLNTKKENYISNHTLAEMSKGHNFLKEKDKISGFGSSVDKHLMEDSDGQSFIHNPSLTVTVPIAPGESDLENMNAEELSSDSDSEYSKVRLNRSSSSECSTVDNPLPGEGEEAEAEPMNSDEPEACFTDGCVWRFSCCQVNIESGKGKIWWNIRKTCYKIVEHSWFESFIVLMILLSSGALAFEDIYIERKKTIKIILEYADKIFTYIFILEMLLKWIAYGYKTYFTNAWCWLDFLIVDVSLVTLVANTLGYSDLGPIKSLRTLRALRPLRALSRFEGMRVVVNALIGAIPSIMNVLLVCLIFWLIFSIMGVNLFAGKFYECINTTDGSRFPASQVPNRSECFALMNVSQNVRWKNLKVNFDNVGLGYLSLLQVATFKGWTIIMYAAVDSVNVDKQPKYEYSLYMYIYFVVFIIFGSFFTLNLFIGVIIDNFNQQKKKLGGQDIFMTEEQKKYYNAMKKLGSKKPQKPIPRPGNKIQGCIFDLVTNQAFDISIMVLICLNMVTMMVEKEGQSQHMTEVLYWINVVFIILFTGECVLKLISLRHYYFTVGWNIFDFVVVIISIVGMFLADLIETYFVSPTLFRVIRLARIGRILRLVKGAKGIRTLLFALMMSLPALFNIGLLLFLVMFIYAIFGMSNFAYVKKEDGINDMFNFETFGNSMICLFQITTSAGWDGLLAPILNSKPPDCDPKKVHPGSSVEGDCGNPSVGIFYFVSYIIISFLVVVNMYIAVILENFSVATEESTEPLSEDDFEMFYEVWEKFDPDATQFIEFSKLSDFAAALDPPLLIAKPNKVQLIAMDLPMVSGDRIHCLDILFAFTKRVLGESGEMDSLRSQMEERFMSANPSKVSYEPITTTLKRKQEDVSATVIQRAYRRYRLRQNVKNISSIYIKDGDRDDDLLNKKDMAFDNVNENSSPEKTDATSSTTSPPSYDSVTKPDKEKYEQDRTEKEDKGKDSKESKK
# method_notes: Planar patch-clamp, inhibition of peak sodium current (IC50 protocol)
# assay_conditions: NaV1.7 peak current; 0.1–100 µM, 5 min exposure; mean ± SEM
endpoint_label: pIC50
pIC50 field: float, defined as -log10 of concentration (mol/L).

## Input // pIC50 lookup, key: `CCCCCc1cc(O)c(C/C=C(\C)CCC=C(C)C)c(O)c1C(=O)O`
## Output 4.79
